# Tested on: Fibroblast
# method.summary: Incucyte cell viability with human fibroblast; also: unitless GR value; below 1 slowed growth and below 0 cell loss
# Format: toxicity, cell-based
# test.settings: 18 h, 10 µM, compound concentration 10 uM, replicate number 1
attribute.measured: Growth Rate
Respond numerically, and do not add a unit to the figure.

Known results for molecules:
> print(dat)
                                   molecule  target.or.system  attribute.measured  obs.value
1  Cl.Cl.O=[N+]([O-])c1ccc(CN2CCOCCOCCN(Cc3ccc([N+](=O)[O-])cc3)CCOCC2)cc1        Fibroblast         Growth Rate       -0.4
2  Cc1ccccc1Oc1cc(-n2c(=O)cc(C(F)(F)F)[nH]c2=O)c2ccccc2c1Cl        Fibroblast         Growth Rate       0.76
3  CCCc1c(OCCCOc2ccc(OCC(=O)O)cc2)ccc(C(C)=O)c1O        Fibroblast         Growth Rate        0.6
4  Cn1cnc(Cn2ccc3ccc(CNCc4[nH]c5ccccc5c4[C@@H]4NC(=O)c5ccc(O)cc54)cc32)c1        Fibroblast         Growth Rate        0.8
5  CCN1C(=O)C(c2cccc(C(=O)O)c2)C(=O)N(c2ccccc2)c2cc(C(F)(F)F)ccc21 (centres undefined)        Fibroblast         Growth Rate       0.92
6  CNc1nc(-c2ccc3c(N)n[nH]c3c2)cc(N2C[C@@H](C(=O)NC3CCCCC3)CC[C@H]2C)n1        Fibroblast         Growth Rate       0.38
7  CSc1ccc(C(=O)/C=C/c2cc(C)c(OC(C)(C)C(=O)O)c(C)c2)cc1        Fibroblast         Growth Rate       0.87
8  CC(Oc1cc(-c2cnn(C3CCNCC3)c2)cnc1N)c1c(Cl)ccc(F)c1Cl (centres undefined)        Fibroblast         Growth Rate      -0.67

Would you kindly look at the next entry?
What value of measured Growth Rate is listed for Cc1ccc(NC(=O)c2ccc3c(c2)OCCO3)cc1NC(=O)c1ccc2nc(OCCN3CCCC3)ccc2c1 ?
-0.2

---

# Tested on: U2OS
# method.summary: Incucyte cell viability with U2OS; also: unitless GR value; below 1 slowed growth and below 0 cell loss
# Format: toxicity, cell-based
# test.settings: human, 0 h, 10 µM, compound concentration 10 uM, replicate number 1
The label is Satisfied for Growth Rate below -0.1 and Not satisfied for Growth Rate equal to or exceeding -0.1.

Does this molecule meet the criterion Growth Rate < -0.1? COc1nc2ccc([C@@](O)(c3ccccc3)C3CCN(C(C)=O)CC3)cc2c(Cl)c1Cc1ccc(-n2cccn2)cc1
Satisfied

Does this molecule meet the criterion Growth Rate < -0.1? O=C(Nc1cc(C(F)(F)F)cc(C(F)(F)F)c1)c1cc(Cl)ccc1O
Satisfied

Does this molecule meet the criterion Growth Rate < -0.1? C=CC[C@@H]1/C=C(\C)C[C@H](C)C[C@H](OC)[C@H]2O[C@@](O)(C(=O)C(=O)N3CCCC[C@H]3C(=O)O[C@H](/C(C)=C/[C@@H]3CC[C@@H](O)[C@H](OC)C3)[C@H](C)[C@@H](O)CC1=O)[C@H](C)C[C@@H]2OC.O
Not satisfied

Does this molecule meet the criterion Growth Rate < -0.1? COc1ccc(-n2nc3c4ccccc4[nH]cc-3c2=O)cc1
Satisfied

Does this molecule meet the criterion Growth Rate < -0.1? Cc1nc2ccc(Oc3ccc(F)cc3)cc2c(=O)n1C[C@H]1CCCN(C(C)C)C1.Cl
Not satisfied
